Below, each entry is listed with its recorded CC50 at 96 h.
- Assay name: Cytotoxicity against human MT4 cells after 4 days by MTT assay
- Format: cell-based
Your answer should be a plain number; it is taken to be in µM.

Examples with answers:
Determine from records and report CC50 at 96 h for "N#Cc1ccc(Nc2nc(N)nc(Oc3ccc4ccccc4c3Br)n2)cc1" 133

Determine from records and report CC50 at 96 h for "CNc1nc(Nc2ccc(C#N)cc2)nc(Oc2ccc(Cl)c3ccccc23)n1" 197

Determine from records and report CC50 at 96 h for "CNc1nc(Nc2ccc(C#N)cc2)nc(Oc2ccc3cc(Br)ccc3c2)n1" 194

Determine from records and report CC50 at 96 h for "N#Cc1ccc(Nc2nc(N)nc(Oc3ccc4ccccc4c3)n2)cc1" 42.2

Further cases:
Determine from records and report CC50 at 96 h for "CNc1nc(Nc2ccc(C#N)cc2)nc(Oc2ccc3cc(Br)ccc3c2Br)n1" 92.8

Determine from records and report CC50 at 96 h for "CCNc1nc(Nc2ccc(C#N)cc2)nc(Oc2ccc3ccccc3c2Cl)n1" 188
